- target-or-test-system: Gal(b1-4)GalNAc(b1-3)[Fuc(a1-2)]Gal(b1-4)GlcNAc
- experiment-description: glycan array binding signal (z-score within array); higher = stronger binding
- measurement-setup: glycan notation: IUPAC condensed, linker removed
This excerpt belongs to a sample that is enriched for the strongest signals.
Recorded glycan array binding signal (z-score) by entry

binder	glycan array binding signal (z-score)
Cohesin-mDCIR (Macaca mulatta) (protein) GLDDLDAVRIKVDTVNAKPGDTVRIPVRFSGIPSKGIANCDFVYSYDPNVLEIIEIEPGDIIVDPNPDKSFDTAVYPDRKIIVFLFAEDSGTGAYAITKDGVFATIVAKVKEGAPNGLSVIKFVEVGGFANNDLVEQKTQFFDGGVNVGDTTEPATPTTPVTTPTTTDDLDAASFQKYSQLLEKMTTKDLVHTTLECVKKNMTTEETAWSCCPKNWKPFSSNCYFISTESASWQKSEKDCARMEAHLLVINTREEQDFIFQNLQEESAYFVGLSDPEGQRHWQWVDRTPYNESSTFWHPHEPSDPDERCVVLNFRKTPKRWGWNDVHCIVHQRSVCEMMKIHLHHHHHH	-0.103
AAL (Agrocybe aegerita), Q6WY08 (protein) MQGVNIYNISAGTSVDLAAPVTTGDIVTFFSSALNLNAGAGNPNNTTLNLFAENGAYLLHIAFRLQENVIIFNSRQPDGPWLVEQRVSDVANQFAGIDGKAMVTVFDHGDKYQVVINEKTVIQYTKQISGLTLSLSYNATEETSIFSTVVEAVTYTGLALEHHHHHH	-0.135
STA (Solanum tuberosum) (protein) NASAPLPYPQCGLKKGGGKCIKTGECCSIWGWCGTTSDYCAPGYCQKQCPGPYPQGRCGWQANGKSCPTGTGQCCSNAGWCGTTSDYCAPNNCQSQCKLPPPPPSPPPPPPSPPPPSPPPPPPSPPPPSPSPPPPPPSPPPPSPPPPSPPPPSPPPPPSPSPPPPPPSPPPPPPPLPYPQCGMKKGGGKCIKTGECCSIWGWCGTTSKYCSPGYCQMQCPDPYPEGRCGWQANGKSCPTGTGQCCSNAGWCGTTSAYCAPVNCQAQCNTTTLTSPIKNRMRGIESFMLNVV	0.033

Origin of measurements: the supplement of paper PMC8728848
